MEASURED_TARGET: human AT1 receptor (Homo sapiens)
Construct: expressed in transfected cells; host or cells: CHO-K1
TEST: AT1 radioligand binding assay (displacement of [Eu]AngII)
CONDITION_SET: membranes of CHO-K1 cells expressing cloned human AT1 receptor; values given as lower bounds; read-out: AT1 pKi (converted)
Assignment: determine reported Ki for the given compounds.

Parameters: items (list). Returns: Ki for each item.
1. CCCc1cc(C(=O)N[C@H](Cc2ccccc2)[C@@H](O)C(=O)O)nn1Cc1ccc(-c2ccccc2-c2nnn[nH]2)cc1F
2. CCCc1cc(C(=O)N[C@H](Cc2ccccc2)[C@@H](O)C(=O)O)nn1Cc1ccc(-c2ccccc2S(=O)(=O)NC(C)=O)cn1
3. CCCc1cc(C(=O)N[C@H](Cc2ccccc2)[C@@H](O)C(=O)O)nn1Cc1ccc(-c2ccccc2S(=O)(=O)NC(=O)c2ccccc2F)cc1
4. CCCc1cc(C(=O)N[C@H](Cc2ccccc2)[C@@H](O)C(=O)O)nn1Cc1ccc(-c2ccccc2C(=O)O)c(F)c1F

≤ 10 nM
≤ 100 nM
≤ 10 nM
≤ 100 nM

Take each entry in turn and give its Ki.
1. CCCc1cc(C(=O)N[C@H](Cc2ccccc2)[C@@H](O)C(=O)O)nn1Cc1ccc(-c2ccccc2S(=O)(=O)NC(=O)[C@H](C)O)cc1
2. CCCc1cc(C(=O)N[C@H](Cc2ccccc2)[C@@H](O)C(=O)O)nn1Cc1ccc(-c2ccccc2S(=O)(=O)NC(=O)c2ccccn2)cc1

≤ 10 nM
≤ 10 nM

====

MEASURED_TARGET: NEP enzyme (Homo sapiens, UniProt P08473)
Construct: purchased R&D Systems, Minneapolis, Minn; 1182-ZN
Sequence (P08473 52-750 limits assumed): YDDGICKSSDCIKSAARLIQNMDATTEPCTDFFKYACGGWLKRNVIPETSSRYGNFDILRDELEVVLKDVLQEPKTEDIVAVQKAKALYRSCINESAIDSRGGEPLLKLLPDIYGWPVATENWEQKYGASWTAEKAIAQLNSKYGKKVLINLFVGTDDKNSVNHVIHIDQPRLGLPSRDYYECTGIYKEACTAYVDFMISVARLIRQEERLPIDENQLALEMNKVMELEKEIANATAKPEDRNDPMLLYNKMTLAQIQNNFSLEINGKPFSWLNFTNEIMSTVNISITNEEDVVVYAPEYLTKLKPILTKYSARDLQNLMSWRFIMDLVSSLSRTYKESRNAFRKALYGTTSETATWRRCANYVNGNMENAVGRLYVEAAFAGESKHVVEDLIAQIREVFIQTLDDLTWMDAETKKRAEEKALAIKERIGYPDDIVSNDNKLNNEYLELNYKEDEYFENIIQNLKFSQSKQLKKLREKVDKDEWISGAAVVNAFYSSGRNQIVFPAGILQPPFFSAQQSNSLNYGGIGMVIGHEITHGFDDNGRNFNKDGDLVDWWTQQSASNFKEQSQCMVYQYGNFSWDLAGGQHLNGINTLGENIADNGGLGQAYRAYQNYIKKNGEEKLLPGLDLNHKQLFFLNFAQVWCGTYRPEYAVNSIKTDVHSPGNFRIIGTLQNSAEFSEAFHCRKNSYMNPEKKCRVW
TEST: NEP enzyme inhibition assay (fluorogenic peptide substrate)
Type: biochemical
CONDITION_SET: values given as lower bounds; * = prodrugs, may not exhibit NEP activity in an in vitro assay; read-out: NEP pIC50 (converted)
RECORDED_ENDPOINT: IC50

// returns reported IC50 for input "CCCc1cc(C(=O)N[C@H](CC(C)C)CN(O)C=O)nn1Cc1ccc(-c2ccccc2-c2nnn[nH]2)cc1" ≤ 100 nM

Please look up its IC50: "CCCc1cc(C(=O)N[C@@H](CC(=O)O)Cc2ccco2)nn1Cc1ccc(-c2ccccc2-c2nnn[nH]2)nc1" ≤ 1000 nM

Which IC50 value is on record for "CCCc1cc(C(=O)N[C@@H](CS)Cc2ccccc2)nn1Cc1ccc(-c2ccccc2-c2nnn[nH]2)cc1F" ? ≤ 100 nM

Provide IC50 values for the following items, in order.
1. CCCc1cc(C(=O)N[C@@H](CC(=O)NO)Cc2ccccc2)nn1Cc1ccc(-c2ccccc2S(=O)(=O)NC(C)=O)c(F)c1
2. CCCc1cc(C(=O)N[C@H](Cc2ccccc2)[C@@H](O)C(=O)O)nn1Cc1ccc(-c2ccccc2S(=O)(=O)NC(=O)[C@H](C)O)cc1
3. CCCc1cc(C(=O)N[C@H](Cc2ccccc2)[C@@H](O)C(=O)O)nn1Cc1ccc(-c2ccccc2S(=O)(=O)NC(C)=O)c(F)c1

["≤ 100 nM", "≤ 100 nM", "≤ 100 nM"]

====

Hi there, I'd appreciate the recorded Ki for every entry that follows.
MEASURED_TARGET: human AT1 receptor (Homo sapiens, UniProt P30556)
Construct: expressed in transfected cells; host or cells: CHO-K1
Sequence (P30556 whole entry): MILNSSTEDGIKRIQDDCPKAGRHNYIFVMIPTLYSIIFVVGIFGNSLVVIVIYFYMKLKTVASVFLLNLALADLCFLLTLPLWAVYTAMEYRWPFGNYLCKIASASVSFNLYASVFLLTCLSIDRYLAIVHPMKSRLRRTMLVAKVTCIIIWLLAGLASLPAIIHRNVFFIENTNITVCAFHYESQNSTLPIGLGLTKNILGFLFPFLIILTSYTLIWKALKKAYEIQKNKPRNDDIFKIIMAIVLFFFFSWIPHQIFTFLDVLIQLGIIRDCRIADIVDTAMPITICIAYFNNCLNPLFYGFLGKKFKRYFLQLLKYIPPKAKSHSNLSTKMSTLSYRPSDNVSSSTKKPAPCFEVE
TEST: AT1 radioligand binding assay (displacement of [Eu]AngII)
CONDITION_SET: membranes of CHO-K1 cells expressing cloned human AT1 receptor; values given as lower bounds; read-out: AT1 pKi (converted)

See these solved cases before continuing.
Checklist item: Ki tested on human AT1 receptor (Homo sapiens, UniProt P30556), entry "CCCc1cc(C(=O)N[C@@H](CC(=O)O)Cc2ccccc2Cl)nn1Cc1ccc(-c2ccccc2-n2nn[nH]c2=O)cc1" , value? ≤ 10 nM

Which Ki is reported with human AT1 receptor (Homo sapiens, UniProt P30556) for this entry: "CCCc1cc(C(=O)N[C@@H](CC(=O)O)Cc2ccco2)nn1Cc1ccc(-c2ccccc2-c2nnn[nH]2)nc1" ? ≤ 10 nM

What is its Ki for human AT1 receptor (Homo sapiens, UniProt P30556)? Entry: "CCCCc1cc(C(=O)N[C@@H](CS)Cc2ccccc2)nn1Cc1ccc(-c2ccccc2C(=O)O)cc1F" ≤ 100 nM

Query the reported Ki for human AT1 receptor (Homo sapiens, UniProt P30556); item: "CCCc1cc(C(=O)N[C@H](Cc2ccccc2)[C@@H](O)C(=O)O)nn1Cc1ccc(-c2ccccc2S(=O)(=O)NC(=O)C(C)C)cc1" ≤ 10 nM

For every item below, please supply its Ki.
1. CCCc1cc(C(=O)N[C@@H](CC(=O)NO)Cc2ccccc2)nn1Cc1ccc(-c2ccccc2S(=O)(=O)NC(C)=O)c(F)c1
2. CCCc1cc(C(=O)N[C@H](Cc2ccccc2)[C@@H](O)C(=O)OC)nn1Cc1ccc(-c2ccccc2-c2nnn[nH]2)cc1
3. CCOc1cc(C(=O)N[C@H](Cc2ccccc2)[C@@H](O)C(=O)O)nn1Cc1ccc(-c2ccccc2-c2nnn[nH]2)cc1F
4. CCCc1cc(C(=O)N[C@@H](CS)Cc2ccccc2)nn1Cc1ccc(-c2ccccc2S(=O)(=O)NC(C)=O)c(F)c1
5. CCCc1cc(C(=O)N[C@@H](CS)CC(C)C)nn1Cc1ccc(-c2ccccc2-c2nnn[nH]2)cc1F
6. CCCc1cc(C(=O)N[C@H](Cc2ccccc2)[C@@H](O)C(=O)O)nn1Cc1ccc(-c2ccccc2S(=O)(=O)NC(=O)[C@@H](C)O)cc1
7. CCOc1cc(C(=O)N[C@@H](CS)CC(C)C)nn1Cc1ccc(-c2ccccc2-c2nnn[nH]2)cc1
8. CCCc1cc(C(=O)N[C@@H](CC(=O)O)Cc2ccccc2Cl)nn1Cc1ccc(-c2ccccc2-c2nnn[nH]2)nc1

≤ 10 nM
≤ 10 nM
≤ 100 nM
≤ 10 nM
≤ 100 nM
≤ 10 nM
≤ 100 nM
≤ 10 nM

Request body: readout Ki, system human AT1 receptor (Homo sapiens, UniProt P30556), query "CCCc1cc(C(=O)N[C@@H](CC(=O)O)Cc2ccccc2Cl)nn1Cc1ccc(-c2ccccc2S(=O)(=O)NC(=O)COC)cc1" . Return the value. ≤ 10 nM
